Target: T1, ATF4 278-349 (basic region + leucine zipper) (UniProt Q06507 278-349)
T1 sequence: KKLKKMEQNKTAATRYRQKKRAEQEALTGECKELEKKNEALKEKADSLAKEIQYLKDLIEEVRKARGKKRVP
Assay: ITC
measurement-kind: Kd

Task item: Using the record for CRE dsDNA (dsDNA) DNA 1: GCAGATGACGTCATCTGC DNA 2: GCAGATGACGTCATCTGC , report its Kd.
Reply: ~12 nM
